Biological target: human IL-21R expressed on cells (human, UniProt Q9HBE5 20-538)
Sequence (Q9HBE5 20-538 limits assumed): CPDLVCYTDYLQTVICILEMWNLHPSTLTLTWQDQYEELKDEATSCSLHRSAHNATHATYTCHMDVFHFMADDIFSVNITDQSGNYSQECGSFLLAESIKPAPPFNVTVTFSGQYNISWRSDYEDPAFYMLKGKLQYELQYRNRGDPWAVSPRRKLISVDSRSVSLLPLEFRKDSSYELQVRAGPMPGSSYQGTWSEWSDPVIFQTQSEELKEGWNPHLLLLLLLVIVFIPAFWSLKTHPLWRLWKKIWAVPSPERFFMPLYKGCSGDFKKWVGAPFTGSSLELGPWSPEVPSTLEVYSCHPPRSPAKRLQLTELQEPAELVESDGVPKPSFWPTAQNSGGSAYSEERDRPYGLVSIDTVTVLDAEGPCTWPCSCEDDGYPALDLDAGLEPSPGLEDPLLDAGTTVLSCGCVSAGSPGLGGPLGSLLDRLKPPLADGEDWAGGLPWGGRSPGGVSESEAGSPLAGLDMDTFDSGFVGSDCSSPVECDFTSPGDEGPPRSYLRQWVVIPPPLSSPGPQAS
Experiment: cell-based or functional assay
quantity.measured: Human IL-21R-BaF3 Neutralization IC50
Express the reported value numerically, then name its unit.

Param item = parental 18A5 antibody (antibody, V domains shown, also called 18A5 IgG) VH: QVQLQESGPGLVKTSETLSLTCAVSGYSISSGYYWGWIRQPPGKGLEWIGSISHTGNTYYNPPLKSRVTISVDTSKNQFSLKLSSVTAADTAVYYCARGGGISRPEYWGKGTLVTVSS VL: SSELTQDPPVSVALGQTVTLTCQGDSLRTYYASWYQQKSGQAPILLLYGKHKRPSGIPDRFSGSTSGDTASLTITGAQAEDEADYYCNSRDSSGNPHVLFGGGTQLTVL ; retrieve measured Human IL-21R-BaF3 Neutralization IC50. 1.71 nM
